System: TRPC4 beta (transient receptor potential cation channel C4), mouse
Run Description: positive allosteric modulators of mouse TRPC4, confirmation, cell-based, Fluo-4, HEK293 TRPC4beta/mu-opioid (AID 2555)
Condition: DAMGO EC20, Fluo-4 calcium flux, at 10 µM
Calls of active or inactive are those of the source.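 How the source made its calls: active means primary screen hit whose calcium fluorescence ratio, in both repeats, exceeds the weak agonist control mean by 3 SD; inactive means the rest.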
Outcome field: choose from label 1 (active), label 0 (inactive)

Recorded results for 5 molecules are shown here.
Cc1ccc(C)c(CN2CCC(CNC(=O)CCc3nnc4ccc(N5CCCCC5)nn34)CC2)c1
label 0
COC(=O)[C@@]1(Cc2ccc(F)cc2)[C@H]2c3cc(C(=O)N(C)C)n(CCc4ccccn4)c3C[C@H]2CN1C(=O)c1ccccc1
label 0
O=C(Nc1nnc(-c2cccs2)o1)c1cccc(C(F)(F)F)c1
label 0
CCOC(=O)C1(CCc2ccccc2)CCN(Cc2ccc(O)cc2)CC1
label 0
COc1ccc(C(CNC(=O)CN2C(=O)NC3(CCCC3)C2=O)N(C)C)cc1 (stereo not given)
label 0

Task: Fill in: this test's call for CC1Cc2ccccc2N1C(=O)CSc1nc2c(c(=O)n(C)c(=O)n2C)n1Cc1ccccc1 (stereo not given) is ___
Result: label 0

Task: And for O=C(C1CCCN(Cc2ccncc2)C1)N1CCc2ccccc2C1 (stereo not given) ?
Result: label 0

Task: And for FC(F)(F)c1cnc(N2CCCN(C(=S)Nc3ccccc3)CC2)c(Cl)c1 ?
Result: label 0

Task: And for CCN1/C(=C\c2ccc3ccccc3[n+]2CC)Sc2cc(C)ccc21 ?
Result: label 1

Task: And for CCCC(=O)N1CCc2cc(-c3nc(N)sc3C)ccc21 ?
Result: label 0

---

Run Description: thallium flux activation in parental CHO cells, counter-screen for KCNQ1 potentiator project (AID 493006);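 on activation: fluorescence ratio of max minus min over baseline after K+ and Tl+ depolarization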
Condition: parental CHO-K1 cells, FluxOR thallium flux, at 10 µM
Active and inactive are the calls of the source.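 The calls were made as follows: active = duplicate-averaged activation above buffer control mean plus 5 SD of those controls; inactive = the rest.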
Outcome field: choose from 1.0 for active, 0.0 for inactive

O=c1[nH]cc(-c2ccccc2)c(=O)[nH]1
0.0
CCOC(=O)SC1=N/C(=C\c2ccc(N(C)C)cc2)C(=O)S1
0.0
CCSc1nnc(NC(=O)[C@H](C)NC(=O)c2ccccc2Cl)s1
0.0

Task: Fill in: this test's call for CN1C(=O)c2ccc(NC(=O)c3c(F)c(F)c(F)c(F)c3F)cc2C1=O is ___
Result: 0.0

Task: And for c1ccc(CCCNc2ncnc3nc[nH]c23)cc1 ?
Result: 1.0

Task: And for O=C(NC(=S)Nc1ccccc1Cl)c1cncc(Br)c1 ?
Result: 0.0

---

Target Entity: Short transient receptor potential channel 4 (Mus musculus)
Run Description: inhibitors of mouse TRPC4 channel, confirmation, cell-based, second round, Fluo4, HEK293 TRPC4beta/mu-opioid, 1 µM (AID 2637);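 on inhibition: percent of integrated ratio relative to wells lacking test compound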
Condition: Fluo4 calcium flux, DAMGO, at 1 µM; hits give high values
Calls of active or inactive are those of the source.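 The calls were made as follows: active = calcium signal ratio cut to more than 3 SD under the fully stimulated control mean yet still positive, in both repeats and the primary screen; inactive = the rest.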
Assay Readout: inhibition

Record excerpt, results attached:
O=C(NC1CC1)C1=C[C@H](C2CCCCC2)C[C@H](OCc2ccc(CO)cc2)O1
inactive
CN(C)CCCN(C(=O)c1ccc(C(=O)c2ccccc2)cc1)c1nc2ccc(F)cc2s1
inactive
Cc1occc1C(=O)NNC(=S)NC(=O)COc1ccc(Cl)cc1Cl
inactive
O=C(NCCCN1CCN(CCCNC(=O)c2ccc3c(c2)OCO3)CC1)c1ccc2c(c1)OCO2
inactive
O=c1c2cc(Br)ccc2nc(-c2ccc(Cl)cc2)n1O
inactive
Cc1cc(Cl)cc(C)c1OCCCCn1ccnc1
inactive
CCCCc1cc(O)c(CCCC)c(O)c1
inactive
Cc1ccc(C)c(S(=O)(=O)N2CCN(C(=O)CCc3nc4ccccc4c(=O)[nH]3)CC2)c1
inactive
CN(C)CCCN(C(=O)c1ccc(S(=O)(=O)N(C)C)cc1)c1nc2ccc(F)cc2s1
37% (active)

Task: # input compound: CN(C)C(CNC(=O)c1cc2ccccc2oc1=O)c1ccccc1 (stereo not given) ; wanted: its inhibition
Result: 76% (active)
